# assay.name: Inhibition of caspase-like activity of 20S human proteasome assessed as Z-nLPnLD-AMC hydrolysis at using Promega proteasome-Glo-3 substrate incubated for 15 mins by luminescence assay
pIC50: −log10 of the molar value.
measurement.name: pIC50

CNc1ccc(-n2nc(-c3ccc(OCCCC[P+](c4ccccc4)(c4ccccc4)c4ccccc4)cc3)c3ccccc3c2=O)cc1 :: 3.88
O=c1c2ccccc2c(-c2ccc(OCCCC[P+](c3ccccc3)(c3ccccc3)c3ccccc3)cc2)nn1-c1ccccc1 :: 3.99
O=c1c2ccccc2c(-c2ccc(OCCCC[P+](c3ccccc3)(c3ccccc3)c3ccccc3)cc2)nn1CC1CCCCC1 :: 4.30
O=c1c2ccccc2c(-c2ccc(OCCCC[P+](c3ccccc3)(c3ccccc3)c3ccccc3)cc2)nn1-c1cccs1 :: 4.15

I: O=c1c2ccccc2c(-c2ccc(OCCCC[P+](c3ccccc3)(c3ccccc3)c3ccccc3)cc2)nn1CC1CC1
II: CC(C)Cn1nc(-c2ccc(OCCCC[P+](c3ccccc3)(c3ccccc3)c3ccccc3)cc2)c2ccccc2c1=O
Select the item with the higher value of pIC50 from the options I and II listed. Refer to your chosen entry by its label in the reply. II

* * *

# assay.name: Inhibition of trypsin-like activity of 20S human proteasome assessed as Z-LRR-AMC hydrolysis at using Promega proteasome-Glo-3 substrate incubated for 15 mins by luminescence assay
pIC50: −log10 of the molar value.
measurement.name: pIC50

Examples with answers:
O=c1c2ccccc2c(-c2ccc(OCCCC[P+](c3ccccc3)(c3ccccc3)c3ccccc3)cc2)nn1-c1ccccc1 :: 3.66
O=c1c2ccccc2c(-c2ccc(OCCCC[P+](c3ccccc3)(c3ccccc3)c3ccccc3)cc2)nn1CC1CC1 :: 3.23
O=c1c2ccccc2c(-c2ccc(OCCCC[P+](c3ccccc3)(c3ccccc3)c3ccccc3)cc2)nn1CC1CCCCC1 :: 3.19
CNc1ccc(-n2nc(-c3ccc(OCCCC[P+](c4ccccc4)(c4ccccc4)c4ccccc4)cc3)c3ccccc3c2=O)cc1 :: 3.41

A: CC(C)Cn1nc(-c2ccc(OCCCC[P+](c3ccccc3)(c3ccccc3)c3ccccc3)cc2)c2ccccc2c1=O
B: O=c1c2ccccc2c(-c2ccc(OCCCC[P+](c3ccccc3)(c3ccccc3)c3ccccc3)cc2)nn1-c1cccs1
Select the item with the higher value of pIC50 from the options A and B listed. Refer to your chosen entry by its label in the reply. A
